Below is a list of entries, each paired with its recorded IC50 value.
Biological target: Leucine-rich repeat serine/threonine-protein kinase 2 (Homo sapiens, UniProt Q5S007)
Sequence (Q5S007 whole entry, the tested form may be a part): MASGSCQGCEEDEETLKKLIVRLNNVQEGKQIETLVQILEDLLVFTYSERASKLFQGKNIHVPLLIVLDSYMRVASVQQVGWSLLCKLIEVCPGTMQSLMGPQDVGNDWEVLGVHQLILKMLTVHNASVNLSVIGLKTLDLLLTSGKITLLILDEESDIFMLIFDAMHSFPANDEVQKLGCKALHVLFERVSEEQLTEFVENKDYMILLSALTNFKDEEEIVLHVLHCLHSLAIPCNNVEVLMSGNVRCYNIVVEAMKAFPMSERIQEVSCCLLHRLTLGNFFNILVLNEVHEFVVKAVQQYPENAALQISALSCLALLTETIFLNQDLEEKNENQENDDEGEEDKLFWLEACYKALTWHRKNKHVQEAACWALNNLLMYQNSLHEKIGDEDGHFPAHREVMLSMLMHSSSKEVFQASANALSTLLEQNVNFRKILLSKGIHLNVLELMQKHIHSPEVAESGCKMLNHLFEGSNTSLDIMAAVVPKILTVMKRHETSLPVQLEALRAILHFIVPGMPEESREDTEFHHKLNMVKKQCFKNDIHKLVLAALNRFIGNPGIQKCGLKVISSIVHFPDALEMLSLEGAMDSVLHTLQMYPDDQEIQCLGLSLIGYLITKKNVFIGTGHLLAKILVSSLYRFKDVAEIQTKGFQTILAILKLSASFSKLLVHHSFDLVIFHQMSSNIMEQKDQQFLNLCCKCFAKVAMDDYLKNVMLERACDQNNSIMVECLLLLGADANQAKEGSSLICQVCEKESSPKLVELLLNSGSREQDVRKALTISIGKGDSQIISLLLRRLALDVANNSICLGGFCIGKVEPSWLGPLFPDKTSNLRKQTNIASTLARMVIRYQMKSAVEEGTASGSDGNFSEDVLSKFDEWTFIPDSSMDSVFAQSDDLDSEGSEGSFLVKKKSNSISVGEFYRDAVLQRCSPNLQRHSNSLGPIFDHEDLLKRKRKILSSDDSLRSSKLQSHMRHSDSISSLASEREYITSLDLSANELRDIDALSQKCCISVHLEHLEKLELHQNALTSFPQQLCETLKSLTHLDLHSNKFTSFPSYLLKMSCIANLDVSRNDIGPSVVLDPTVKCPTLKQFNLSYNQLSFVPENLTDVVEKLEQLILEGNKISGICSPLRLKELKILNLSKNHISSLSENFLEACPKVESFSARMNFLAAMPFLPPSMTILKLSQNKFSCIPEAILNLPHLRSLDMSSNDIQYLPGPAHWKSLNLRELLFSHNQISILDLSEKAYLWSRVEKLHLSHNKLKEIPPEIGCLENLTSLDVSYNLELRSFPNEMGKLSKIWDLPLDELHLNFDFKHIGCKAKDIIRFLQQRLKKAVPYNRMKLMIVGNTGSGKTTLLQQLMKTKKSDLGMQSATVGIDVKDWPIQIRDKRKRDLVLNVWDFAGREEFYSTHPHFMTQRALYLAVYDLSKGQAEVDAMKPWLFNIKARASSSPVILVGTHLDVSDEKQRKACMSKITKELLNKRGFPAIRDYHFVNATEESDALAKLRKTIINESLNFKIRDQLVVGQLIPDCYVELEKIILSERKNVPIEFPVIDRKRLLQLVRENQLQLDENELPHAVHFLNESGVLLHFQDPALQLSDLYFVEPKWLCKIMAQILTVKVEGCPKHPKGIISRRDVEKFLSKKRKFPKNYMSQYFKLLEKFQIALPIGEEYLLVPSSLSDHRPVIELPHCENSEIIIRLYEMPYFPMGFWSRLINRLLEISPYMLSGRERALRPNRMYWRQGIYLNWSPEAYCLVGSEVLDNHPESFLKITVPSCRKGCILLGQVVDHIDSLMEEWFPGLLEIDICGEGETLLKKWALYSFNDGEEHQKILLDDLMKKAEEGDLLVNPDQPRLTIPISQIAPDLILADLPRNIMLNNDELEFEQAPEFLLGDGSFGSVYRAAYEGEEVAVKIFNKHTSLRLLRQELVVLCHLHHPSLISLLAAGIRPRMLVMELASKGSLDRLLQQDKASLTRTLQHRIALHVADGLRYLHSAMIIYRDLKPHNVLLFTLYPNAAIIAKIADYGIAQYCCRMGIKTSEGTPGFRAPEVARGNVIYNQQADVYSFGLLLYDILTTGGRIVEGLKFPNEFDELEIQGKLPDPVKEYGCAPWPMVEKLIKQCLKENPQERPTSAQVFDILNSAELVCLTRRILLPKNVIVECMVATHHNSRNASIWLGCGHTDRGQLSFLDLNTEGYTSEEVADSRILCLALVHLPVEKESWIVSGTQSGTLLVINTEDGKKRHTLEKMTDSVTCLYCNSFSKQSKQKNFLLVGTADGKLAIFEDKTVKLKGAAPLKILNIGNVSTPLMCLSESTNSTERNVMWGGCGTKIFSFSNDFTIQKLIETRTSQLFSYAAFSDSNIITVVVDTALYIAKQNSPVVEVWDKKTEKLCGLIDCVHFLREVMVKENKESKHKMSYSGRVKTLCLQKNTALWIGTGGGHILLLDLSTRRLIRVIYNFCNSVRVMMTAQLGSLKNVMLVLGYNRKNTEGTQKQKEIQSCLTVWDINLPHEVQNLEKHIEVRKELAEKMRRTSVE
Assay: LRRK2 Enzymatic Assay: LRRKtide substrate (peptide sequence RLGRDKYKTLRQIRQ, derived from human ezrin [amino acids 561-573], moesin [amino acids 539-553] and radixin [amino acids 558-570], obtained from SignalChem, catalogue #L10-58, reconstituted in 20 mM Tris-HCl at pH 7.5 to a final concentration of 1 mg/mL, assay concentration 20 μM) and recombinant human LRRK2 (catalytic domain only [amino acids 970-2527], GST-tagged, expressed in insect cells, obtained from ThermoFisher Scientific, catalogue #PV4874, 0.35 mg/mL, assay concentration 30 nM) were mixed in assay buffer (20 mM Hepes pH 7.5, 10 mM MgCl, 1 mM EGTA, 0.02% Brij35, 0.02 mg/ml BSA, 0.1 mM NaVO, 2 mM DTT, 1% DMSO). Compounds of interest (in DMSO, serial 3-fold dilution from 10 μM to 0.5 nM) or control (1% DMSO) were dispensed into the kinase reaction mixture by Acoustic technology (Echo550; nanoliter range). After incubation at room temperature for 20 minutes, the kinase reaction was initiated by addition of [P]-ATP (Specific activity 10 μCi/μl) and the mixture was incubated at room temperature for 2 hours. The reaction was then stopped by spotting the reaction mixture on strips of phosphocellulose P81 paper. Following washing, the radioactivity of the P81 paper was measured and kinase activity data were expressed as the percent remaining kinase activity in test samples compared to vehicle (dimethyl sulfoxide) reactions.

CN[C@H]1CC[C@H](COc2nc(Nc3cn(C(C)(C)C#N)nc3C)ncc2C2CC2)CC1 | < 0.05 µM
Cc1nn(C(C)(C)C#N)cc1Nc1ncc(F)c(OCC2CCNCC2(F)F)n1 (stereo not drawn) | < 0.05 µM
CC(=O)N[C@H]1CC[C@@H](COc2nc(Nc3ccc(N4C[C@@H](C)O[C@@H](C)C4)cc3)ncc2F)C1 | < 0.05 µM
CN[C@H]1CC[C@H](COc2nc(Nc3cnn(C(C)C)c3)ncc2Cl)CC1 | < 0.05 µM
CC(=O)N[C@H]1CC[C@H](COc2nc(Nc3cnn(CCO)c3)ncc2F)CC1 | < 0.05 µM

Lookup: IC50 / Leucine-rich repeat serine/threonine-protein kinase 2 (Homo sapiens, UniProt Q5S007) / CC(N[C@H]1CC[C@H](COc2ccnc(Nc3ccc(N4CCOCC4)cc3)n2)CC1)C(F)(F)F (stereo partly drawn)
> 0.4 µM

Item: CC(=O)N[C@H]1CC[C@H](COc2nc(Nc3ccc(N4C[C@@H](C)O[C@@H](C)C4)cc3)ncc2C)CC1
< 0.05 µM

// next record FC(F)CN[C@H]1CC[C@H](COc2nc(Nc3ccc(N4CCOCC4)cc3)ncc2Cl)CC1
< 0.05 µM

Hello, the source for this data is ChEMBL document CHEMBL5729586, in case you need it.
